System: Saccharomyces cerevisiae
assay-remarks: protein stability index of tFT-peptide fusion (C-terminal peptide) (PSI (0-1 scale)); higher = more stable (slower turnover);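 note: PSI is a weighted mean of sequencing reads over stability bins, variants kept only with over 10 reads, mCherry proximal and sfGFP distal, peptide attached via GGGS linker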
assay-setup: genetic background: cdc34-1; temperature: 37 C
Lab note: compare protein stability index against 0.5. Equal or greater, write MET. Smaller, write NOT MET.

[
  {
    "macromolecule-sequence": "NNGLLLDILIKA",
    "label-class": "NOT MET"
  },
  {
    "macromolecule-sequence": "GTVRSLLKWRCS",
    "label-class": "MET"
  },
  {
    "macromolecule-sequence": "ILLICLQFFNLF",
    "label-class": "NOT MET"
  },
  {
    "macromolecule-sequence": "ARRGHNCAAVFL",
    "label-class": "MET"
  },
  {
    "macromolecule-sequence": "WWADRLVGVCIV",
    "label-class": "MET"
  },
  {
    "macromolecule-sequence": "VSCYYVFLIPFW",
    "label-class": "NOT MET"
  },
  {
    "macromolecule-sequence": "FVRGWGIVFSLA",
    "label-class": "MET"
  },
  {
    "macromolecule-sequence": "WYYTWKQLVMIV",
    "label-class": "NOT MET"
  },
  {
    "macromolecule-sequence": "LLLHFMFSIFWF",
    "label-class": "NOT MET"
  },
  {
    "macromolecule-sequence": "LVSSYVPFFFAL",
    "label-class": "MET"
  },
  {
    "macromolecule-sequence": "QGPHISQYRTHR",
    "label-class": "MET"
  },
  {
    "macromolecule-sequence": "GGGHGSSCSVCD",
    "label-class": "MET"
  },
  {
    "macromolecule-sequence": "SIRVIVAVRNIS",
    "label-class": "MET"
  },
  {
    "macromolecule-sequence": "FVLLTFLFFWQF",
    "label-class": "NOT MET"
  },
  {
    "macromolecule-sequence": "INKKKKMIITKI",
    "label-class": "MET"
  },
  {
    "macromolecule-sequence": "VSLLSLGYVFVY",
    "label-class": "NOT MET"
  },
  {
    "macromolecule-sequence": "VSGITLPFLMFH",
    "label-class": "NOT MET"
  }
]

* * *

Tested on: Saccharomyces cerevisiae
assay-remarks: protein stability index of tFT-peptide fusion (C-terminal peptide) (PSI (0-1 scale)); higher = more stable (slower turnover)
assay-setup: genetic background: doa10 deletion; temperature: 30 C

[
  {
    "macromolecule-sequence": "IRLCAASFMVVF",
    "protein stability index": 0.39
  },
  {
    "macromolecule-sequence": "VGVSCLVFFGVV",
    "protein stability index": 0.484
  },
  {
    "macromolecule-sequence": "GCCFVCSVFWWG",
    "protein stability index": 0.327
  },
  {
    "macromolecule-sequence": "YARFWYSKAFIC",
    "protein stability index": 0.12
  },
  {
    "macromolecule-sequence": "LLFTFSLSFFFR",
    "protein stability index": 0.458
  },
  {
    "macromolecule-sequence": "PALLLFLRNLLL",
    "protein stability index": 0.304
  },
  {
    "macromolecule-sequence": "CLCLICFLCWFA",
    "protein stability index": 0.387
  },
  {
    "macromolecule-sequence": "VYDVSVGVAVVG",
    "protein stability index": 0.291
  },
  {
    "macromolecule-sequence": "TWGGGRVSLGGG",
    "protein stability index": 0.363
  },
  {
    "macromolecule-sequence": "FSMRWTFRYWVN",
    "protein stability index": 0.0438
  }
]

* * *

Quick reference for protein stability index among some sequences
Tested on: Saccharomyces cerevisiae
assay-remarks: protein stability index of tFT-peptide fusion (C-terminal peptide) (PSI (0-1 scale)); higher = more stable (slower turnover)
assay-setup: genetic background: cdc34-1; temperature: 37 C

[
  {
    "macromolecule-sequence": "DVLLVVVLGRFL",
    "protein stability index": 0.403
  },
  {
    "macromolecule-sequence": "VFLLCLGFLVFS",
    "protein stability index": 0.263
  },
  {
    "macromolecule-sequence": "LVLSFVMLVSGH",
    "protein stability index": 0.183
  },
  {
    "macromolecule-sequence": "VSLLVFVVSSRV",
    "protein stability index": 0.345
  },
  {
    "macromolecule-sequence": "KRARVIWKLVVV",
    "protein stability index": 0.59
  },
  {
    "macromolecule-sequence": "NFSLFVHFLGLC",
    "protein stability index": 0.668
  },
  {
    "macromolecule-sequence": "FSLSLFPYPFSL",
    "protein stability index": 0.698
  },
  {
    "macromolecule-sequence": "SIFLCRLQNLLI",
    "protein stability index": 0.637
  },
  {
    "macromolecule-sequence": "RVGSSLIVVYCV",
    "protein stability index": 0.452
  },
  {
    "macromolecule-sequence": "VCVARICIWDFL",
    "protein stability index": 0.505
  },
  {
    "macromolecule-sequence": "FLLYVITYRSET",
    "protein stability index": 0.151
  },
  {
    "macromolecule-sequence": "SMGVLITYLVQV",
    "protein stability index": 0.399
  },
  {
    "macromolecule-sequence": "SDLQVMKLRSVC",
    "protein stability index": 0.717
  },
  {
    "macromolecule-sequence": "GGGGMGRRVGVG",
    "protein stability index": 0.361
  },
  {
    "macromolecule-sequence": "VSFLLYNFLSVF",
    "protein stability index": 0.286
  },
  {
    "macromolecule-sequence": "VSPPPLSPPLSR",
    "protein stability index": 0.677
  },
  {
    "macromolecule-sequence": "VFLRRFGVPWVF",
    "protein stability index": 0.594
  },
  {
    "macromolecule-sequence": "PALLLFLRNLLL",
    "protein stability index": 0.714
  },
  {
    "macromolecule-sequence": "KRMVEKNKKKIN",
    "protein stability index": 0.57
  }
]

* * *

System: Saccharomyces cerevisiae
assay-remarks: protein stability index of tFT-peptide fusion (C-terminal peptide) (PSI (0-1 scale)); higher = more stable (slower turnover)
assay-setup: genetic background: wild type; temperature: 30 C

[
  {
    "macromolecule-sequence": "KELPAGRQSEPD",
    "protein stability index": 0.636
  },
  {
    "macromolecule-sequence": "PFFSFGGLRFLL",
    "protein stability index": 0.662
  },
  {
    "macromolecule-sequence": "AGGWLRGWLGVG",
    "protein stability index": 0.673
  },
  {
    "macromolecule-sequence": "VSGCVMIYGRTV",
    "protein stability index": 0.724
  },
  {
    "macromolecule-sequence": "PGVRGVKPVGVS",
    "protein stability index": 0.675
  },
  {
    "macromolecule-sequence": "RCGDGLSRLTPL",
    "protein stability index": 0.71
  },
  {
    "macromolecule-sequence": "MTESLIGCLSGD",
    "protein stability index": 0.7
  },
  {
    "macromolecule-sequence": "YQSHFERSGVAR",
    "protein stability index": 0.674
  },
  {
    "macromolecule-sequence": "HFLPFSLLLFPP",
    "protein stability index": 0.755
  },
  {
    "macromolecule-sequence": "CLGSVFYCCWNF",
    "protein stability index": 0.648
  },
  {
    "macromolecule-sequence": "PGCSCPSTRRTT",
    "protein stability index": 0.655
  },
  {
    "macromolecule-sequence": "SPRLSGVPGHAP",
    "protein stability index": 0.663
  },
  {
    "macromolecule-sequence": "APPPVFLPPPPP",
    "protein stability index": 0.778
  },
  {
    "macromolecule-sequence": "HVPFPPTVLNSP",
    "protein stability index": 0.667
  },
  {
    "macromolecule-sequence": "TCAPTRISRTPG",
    "protein stability index": 0.688
  },
  {
    "macromolecule-sequence": "YLLLVPDTRTLL",
    "protein stability index": 0.683
  },
  {
    "macromolecule-sequence": "SLPAFLPAPPLF",
    "protein stability index": 0.696
  },
  {
    "macromolecule-sequence": "MGCDGSMAPRSL",
    "protein stability index": 0.661
  },
  {
    "macromolecule-sequence": "IVQETKYFVRRS",
    "protein stability index": 0.685
  }
]
